- assay remarks: chemical genetic growth profiling, strain panel (AID 1159580);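 note: tested at 20 µM; growth read once vehicle control cultures reached saturation at 30 °C; 1 = growth at the plate median or of vehicle wells; lower values mean less growth of the strain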
- condition label: S. cerevisiae deletion strains, growth OD, locus YPR167C, strain met16, hits give low values
In all, about 5,500 compounds went through this assay and about 2,000 (36%) were called active. About 18% were inconclusive and are not listed. Some of the results follow.
Would you kindly list normalized growth for each of these molecules?

Some molecules with known normalized growth results, for comparison:
{"molecule": "CCOP(=S)(OCC)Oc1nc(Cl)c(Cl)cc1Cl", "normalized growth": "0.99 (inactive)"}
{"molecule": "Cc1ccc(-c2cc(C(F)(F)F)nn2-c2ccc(S(N)(=O)=O)cc2)cc1", "normalized growth": "1.01 (inactive)"}
{"molecule": "COC1=C[C@@H]2[C@@H]3Cc4ccc(OC)c(O)c4[C@]2(CCN3C)CC1=O", "normalized growth": "0.979 (inactive)"}
{"molecule": "N=C(N)c1ccc(OCCCCCOc2ccc(C(=N)N)cc2)cc1", "normalized growth": "0.944 (inactive)"}

// for each molecule below, give its normalized growth
1. CC(=O)NC(C(=O)O)C(C)(C)SN=O (configuration not stated)
2. OC(CCN1CCCCC1)(c1ccccc1)C1CCCCC1 (configuration not stated)
3. COC(=O)C[C@H]1C(C)(C)C(=O)[C@@H]2CC3C4=CC(=O)O[C@@H](c5ccoc5)[C@]4(C)CCC3[C@@]1(C)C2=O (some centres not stated)
4. C[C@@H]1OC(O[C@H]2[C@H](OC(=O)[C@]34CCC(C)(C)CC3C3=CCC5[C@@]6(C)CC[C@H](OC7O[C@@H](C)[C@H](O[C@@H]8OC[C@@H](O)[C@H](O)[C@H]8O)[C@@H](O)[C@H]7O)C(C)(C)C6CC[C@@]5(C)[C@]3(C)CC4O)OC[C@H](O)[C@H]2O)[C@H](O)[C@H](O)[C@H]1O[C@@H]1O[C@H](CO)[C@@H](O)[C@H](O)[C@H]1O (some centres not stated)
5. NC(Cc1c[nH]c2ccccc12)C(=O)O (configuration not stated)

["1 (inactive)", "0.998 (inactive)", "0.982 (inactive)", "0.861 (active)", "1 (inactive)"]

// for each molecule below, give its normalized growth
1. CC(C)=CCCC1(C)C=Cc2c(O)c3c(c(CC=C(C)C)c2O1)OC12C(=CC4CC1C(C)(C)OC2(C/C=C(/C)C(=O)O)C4O)C3=O (configuration not stated)
2. Clc1ccccc1C(c1ccccc1)(c1ccccc1)n1ccnc1
3. CCOP(=S)(OCC)Oc1cc(C)nc(C(C)C)n1
4. C[C@@H]1CC[C@]2(C(=O)O)CC[C@]3(C)C(=CCC4[C@@]5(C)CC[C@H](O)C(C)(C)C5CC[C@]43C)C2[C@H]1C (some centres not stated)
5. COc1c(CC(=O)c2cc3c(cc2O)OC(C)(C)C(O)C3)ccc2c1C=CC(C)(C)O2 (configuration not stated)
6. CC1(C)CC[C@@]2(C(=O)O)C(C1)C1=CCC3[C@@]4(C)CC[C@H](O)C(C)(C)C4CC[C@@]3(C)[C@]1(C)C[C@@H]2O (some centres not stated)

1. 0.984 (inactive)
2. 0.0634 (active)
3. 0.987 (inactive)
4. 1.01 (inactive)
5. 1 (inactive)
6. 1.04 (inactive)

// for each molecule below, give its normalized growth
1. OC(CCN1CCCC1)(c1ccccc1)C1CCCCC1 (configuration not stated)
2. CC(C)(C#N)O[C@@H]1O[C@H](CO)[C@@H](O)[C@H](O)[C@H]1O

1: 0.978 (inactive); 2: 1.01 (inactive)
